Kindly state PBM E-score for each of the entries shown.
Study target: Hmlalpha2 (UniProt P0CY09)
Sequence: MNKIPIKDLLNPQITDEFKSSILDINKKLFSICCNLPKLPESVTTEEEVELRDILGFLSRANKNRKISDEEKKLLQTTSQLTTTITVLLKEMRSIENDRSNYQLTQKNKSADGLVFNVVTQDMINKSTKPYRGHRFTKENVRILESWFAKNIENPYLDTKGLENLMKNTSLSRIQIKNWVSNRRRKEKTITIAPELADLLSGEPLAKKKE
Method notes: PBM E-score (8-mer binding enrichment) (E-score (-0.5 to 0.5)); higher = stronger / more preferred TF binding
Condition summary: protein concentration: 200 nM; construct: GST-full length
In all, about 33,000 sequences were measured (“E-score (-0.5 to 0.5)”: median about -0.04, highest 2% from about 0.36 on). The sample as a whole holds a higher share of the highest values than the screen did.
Answer using only a numeral; do not append any unit.

Problem: Let me know recorded PBM E-score for "ATATCACC" , thanks.
Solution: 0.0884

Problem: Using known records, supply PBM E-score for "ATACATGC"
Solution: 0.427

Problem: Consider the sequence "ATAATTAC" and give its recorded PBM E-score.
Solution: 0.357

Problem: Hello, please tell me recorded PBM E-score for this one: "ATGATTAC"
Solution: 0.326

Problem: Give reported PBM E-score value for "GGTAATTA"
Solution: 0.25

Problem: Give PBM E-score for the following sequence: "ACAATTAT"
Solution: 0.214

Problem: Give the reported value of PBM E-score for this record: "TTATGCAA"
Solution: 0.11

Problem: Look up PBM E-score of "ATTATAGA" and report it.
Solution: 0.0519

Problem: Look up PBM E-score of "ACGTAATA" and report it.
Solution: 0.431

Problem: Retrieve PBM E-score measured for "CCTACAAA" and print it.
Solution: 0.0287

Problem: Give recorded PBM E-score. "AATCGGGG"
Solution: -0.203

Problem: Hello, please tell me recorded PBM E-score for this one: "CCGATTAC"
Solution: 0.216

Problem: Give reported PBM E-score value for "GAGTAGAC"
Solution: -0.0398

Problem: // fetch PBM E-score given entry "AGGTAATG"
Solution: 0.226

Problem: Using the record for "ACGTAAGC" , state its measured PBM E-score.
Solution: 0.0597

Problem: Determine from records and report PBM E-score for "ACGTAATG"
Solution: 0.408

Problem: Quick one: give measured PBM E-score for "AGACATGC"
Solution: 0.171

Problem: Output PBM E-score of "AATACGCA"
Solution: 0.385

Problem: // Input: "ACGTAATC" . Output its PBM E-score only.
Solution: 0.392

Problem: Tell me its PBM E-score given "CCGTAATA" as the entry.
Solution: 0.159

Problem: Fill in PBM E-score for record "CGACATGC"
Solution: 0.311

Problem: Determine from records and report PBM E-score for "CCAGGCAG"
Solution: -0.272

Problem: Using known records, supply PBM E-score for "CATACGCG"
Solution: 0.177

Problem: Return value of PBM E-score for input "ACAATTAC" , no commentary.
Solution: 0.376

Problem: Specify measured PBM E-score for "GATACGCA" .
Solution: 0.144

Problem: Read the entry "CTTATAGA" and write its reported PBM E-score.
Solution: -0.154

Problem: Provide only the value of recorded PBM E-score for "GCGTAATA"
Solution: 0.373

Problem: Please look at this sequence and report its PBM E-score: "ATTATACA"
Solution: 0.34

Problem: Find the measured PBM E-score of "AAAATCGT" and report it.
Solution: 0.0614

Problem: Tell me PBM E-score reported for "ACTCTCCT"
Solution: -0.223

Problem: Indicate the recorded PBM E-score value for this sequence: "ATCTTTCA"
Solution: 0.0227

Problem: Input "CTTATACA" , output reported PBM E-score.
Solution: 0.252

Problem: Tell me its PBM E-score given "GGGAGAGA" as the entry.
Solution: -0.33

Problem: Answer with reported PBM E-score of "CGTAATCC"
Solution: 0.309

Problem: Recall and state the measured PBM E-score for "GAGTAATA" .
Solution: 0.286

Problem: Supply PBM E-score value. Item: "AGGTAATA"
Solution: 0.139

Problem: Note down PBM E-score recorded for "TCCTGCAA"
Solution: -0.15

Problem: Given the sequence "GTGGGACA" , write its reported PBM E-score.
Solution: -0.0285

Problem: Please give the documented PBM E-score of "ACGATTAC"
Solution: 0.383

Problem: Recall and state the measured PBM E-score for "ACGTAAGA" .
Solution: 0.29

Problem: Using the record for "ATACATGA" , state its measured PBM E-score.
Solution: 0.465

Problem: State, in one line, measured PBM E-score of "GAGTTAGA"
Solution: -0.0875

Problem: Note down PBM E-score recorded for "GCTAAGGA"
Solution: -0.195

Problem: Item "GTTATACA" : provide PBM E-score
Solution: 0.4

Problem: Please indicate PBM E-score recorded for "AGACATGG"
Solution: 0.21

Problem: For the sequence "GAAGTCGA" , give its reported PBM E-score.
Solution: -0.0459
